test system: human normal cell line HaCaT; experiment: MTT cell proliferation assay, HaCaT cells; type: cell-based; conditions: 72 h, read-out: IC50 value (μM) HaCaT
property-label: IC50 (µM)
Give the quantity in µM, number only.

Query: # get_value(readout='IC50', item= O=c1[nH]cc(F)c(=O)[nH]1 [5-FU, 5-fluorouracil, reference compound] )
Reply: 4

Query: # get_value(readout='IC50', item= C=C(C)[C@H]1Cc2c(oc3c4c(cc(O)c3c2=O)OC(C)(C)C=C4)-c2c(O)cc(O)c(O)c21 [AA3, artobiloxanthone] )
Reply: 70

Query: # get_value(readout='IC50', item= CC(C)=CCc1c(-c2cc(O)c(O)cc2O)oc2c3c(cc(O)c2c1=O)OC(C)(C)C=C3 [AA2, artonin E] )
Reply: 72
